- Experimental system: Alpha-synuclein (Homo sapiens) (UniProt P37840)
- Test description: Inhibition of human alpha-synuclein aggregation expressed in transgenic Caenorhabditis elegans NL5901 assessed as decrease in alpha-synuclein expression at 1% after 48 hrs by fluorescence microscopy analysis
Activity calls are given as the source filed them. The rule behind the calls is not given here.
Measured quantity: inhibition

{"Query smiles": "CCOC(=O)c1cnc2c(cnn2-c2ccccc2)c1N1CCN(c2ncccc2C#N)CC1", "Measured quantity": "inhibition", "Assay value": "Active"}
{"Query smiles": "CCOC(=O)c1cnc2c(cnn2-c2cccc(C(F)(F)F)c2)c1N1CCN(c2ncccc2C#N)CC1", "Measured quantity": "inhibition", "Assay value": "Active"}
{"Query smiles": "CCOC(=O)c1cnc2c(cnn2-c2ccccc2)c1N1CCOCC1", "Measured quantity": "inhibition", "Assay value": "Active"}
{"Query smiles": "CCOC(=O)c1cnc2c(cnn2-c2ccccc2)c1N1CCN(S(=O)(=O)c2ccc(NC(C)=O)cc2)CC1", "Measured quantity": "inhibition", "Assay value": "Active"}
{"Query smiles": "CCOC(=O)c1cnc2c(cnn2-c2ccccc2)c1N1CCN(c2ccnc3cc(Cl)ccc23)CC1", "Measured quantity": "inhibition", "Assay value": "Active"}
{"Query smiles": "CCOC(=O)c1cnc2c(cnn2-c2ccccc2)c1Oc1cccc2cccnc12", "Measured quantity": "inhibition", "Assay value": "Active"}
{"Query smiles": "CCOC(=O)c1cnc2c(cnn2-c2ccccc2)c1N1CCCCC1", "Measured quantity": "inhibition", "Assay value": "Active"}
{"Query smiles": "CCOC(=O)c1cnc2c(cnn2-c2ccccc2)c1N1CCN(c2cc(C(F)(F)F)nc3ncnn23)CC1", "Measured quantity": "inhibition", "Assay value": "Active"}

Proceed to the following item.
Lookup result for CCOC(=O)c1cnc2c(cnn2-c2ccccc2F)c1N1CCN(c2ncccc2C#N)CC1 ; measured inhibition: Active

Values from ChEMBL document CHEMBL4725335
